Hello, the source for this data is ChEMBL document CHEMBL2203089, in case you need it.

Could you please report measured pEC50 for the items listed next?
Molecular target: Apoptotic protease-activating factor 1/Caspase-3/Caspase-9/Cytochrome c (Homo sapiens, UniProt O14727+P42574+P55211+P99999)
Sequence (O14727 whole entry): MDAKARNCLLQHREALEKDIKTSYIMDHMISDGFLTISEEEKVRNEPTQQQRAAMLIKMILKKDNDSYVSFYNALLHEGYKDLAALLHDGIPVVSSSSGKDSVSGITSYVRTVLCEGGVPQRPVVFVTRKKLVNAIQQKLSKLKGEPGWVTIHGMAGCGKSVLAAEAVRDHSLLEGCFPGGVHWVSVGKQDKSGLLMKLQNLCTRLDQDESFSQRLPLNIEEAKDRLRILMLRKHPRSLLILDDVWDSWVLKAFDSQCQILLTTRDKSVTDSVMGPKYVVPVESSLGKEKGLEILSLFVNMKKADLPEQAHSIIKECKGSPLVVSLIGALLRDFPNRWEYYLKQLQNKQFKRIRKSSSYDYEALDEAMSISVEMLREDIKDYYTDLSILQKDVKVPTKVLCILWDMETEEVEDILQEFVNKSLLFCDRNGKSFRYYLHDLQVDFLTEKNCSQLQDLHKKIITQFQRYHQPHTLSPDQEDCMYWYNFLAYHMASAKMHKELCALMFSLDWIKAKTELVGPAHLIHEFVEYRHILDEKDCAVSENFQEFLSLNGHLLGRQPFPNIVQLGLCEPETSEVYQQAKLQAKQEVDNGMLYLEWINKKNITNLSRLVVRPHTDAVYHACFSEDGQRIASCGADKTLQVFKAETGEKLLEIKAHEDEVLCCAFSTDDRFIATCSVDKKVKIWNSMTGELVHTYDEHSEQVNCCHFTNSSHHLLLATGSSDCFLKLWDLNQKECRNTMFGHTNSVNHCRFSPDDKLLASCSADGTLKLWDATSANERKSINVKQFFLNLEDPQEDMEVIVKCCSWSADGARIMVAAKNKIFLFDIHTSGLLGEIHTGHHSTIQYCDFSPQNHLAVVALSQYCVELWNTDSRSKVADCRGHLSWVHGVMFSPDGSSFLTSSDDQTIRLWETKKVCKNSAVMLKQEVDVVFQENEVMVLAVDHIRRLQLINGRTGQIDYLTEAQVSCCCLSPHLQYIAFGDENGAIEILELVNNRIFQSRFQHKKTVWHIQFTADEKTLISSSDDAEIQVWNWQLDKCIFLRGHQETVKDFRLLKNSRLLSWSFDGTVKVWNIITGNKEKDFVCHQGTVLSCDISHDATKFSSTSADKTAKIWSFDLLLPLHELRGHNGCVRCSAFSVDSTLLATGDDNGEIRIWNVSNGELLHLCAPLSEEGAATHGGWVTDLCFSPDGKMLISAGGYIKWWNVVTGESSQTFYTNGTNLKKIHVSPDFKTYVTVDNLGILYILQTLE
Sequence (P42574 29-175 limits assumed): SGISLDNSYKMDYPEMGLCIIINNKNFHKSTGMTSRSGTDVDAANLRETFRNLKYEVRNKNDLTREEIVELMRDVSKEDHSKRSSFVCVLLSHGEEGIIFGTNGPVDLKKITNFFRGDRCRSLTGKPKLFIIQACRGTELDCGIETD
Sequence (P42574 176-277 limits assumed): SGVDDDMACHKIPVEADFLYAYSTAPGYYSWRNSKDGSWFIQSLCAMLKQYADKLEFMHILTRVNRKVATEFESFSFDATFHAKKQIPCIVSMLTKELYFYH
Sequence (P55211 1-315 limits assumed): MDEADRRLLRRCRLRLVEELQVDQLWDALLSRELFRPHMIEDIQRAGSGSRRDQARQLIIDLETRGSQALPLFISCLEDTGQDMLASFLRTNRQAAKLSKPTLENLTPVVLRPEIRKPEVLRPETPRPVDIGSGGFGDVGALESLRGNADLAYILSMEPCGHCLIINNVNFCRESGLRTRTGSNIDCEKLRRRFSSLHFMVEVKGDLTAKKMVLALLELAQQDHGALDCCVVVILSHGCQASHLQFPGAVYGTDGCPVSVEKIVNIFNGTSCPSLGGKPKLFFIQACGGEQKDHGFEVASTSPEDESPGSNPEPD
Sequence (P55211 331-416 limits assumed): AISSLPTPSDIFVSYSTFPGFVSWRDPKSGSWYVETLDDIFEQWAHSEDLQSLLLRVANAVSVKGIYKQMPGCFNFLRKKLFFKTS
Sequence (P99999 2-105 limits assumed): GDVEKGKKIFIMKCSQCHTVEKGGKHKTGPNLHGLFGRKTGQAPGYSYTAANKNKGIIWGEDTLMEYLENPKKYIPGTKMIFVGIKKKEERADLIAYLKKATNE
Assay: Inhibition of Apaf-1-caspase 9-cytochrome c-caspase 3 complex in human HEK293 cytosolic extract using afc-DEVD as substrate preincubated for 30 mins before substrate addition measured after 30 mins by fluorescence assay
Give only the number. pEC50 is defined as minus log10 of concentration in molar units.

Give its pEC50 value. Item: `NC(=O)CN(CCc1ccc(Cl)cc1Cl)C(=O)[C@H]1CC(=O)N(CCc2ccc(Cl)cc2Cl)CC(=O)N1CCC(c1ccccc1)c1ccccc1`
4.84

Give its pEC50 value. Item: `NC(=O)CN(CCc1ccc(Cl)cc1Cl)C(=O)C[C@@H]1C(=O)N(CCc2ccc(Cl)cc2Cl)CC(=O)N1CCC(c1ccccc1)c1ccccc1`
4.52

Give its pEC50 value. Item: NC(=O)CN(CCc1ccc(Cl)cc1Cl)C(=O)CC1C(=O)N(CCc2ccc(Cl)cc2Cl)CC(=O)N1CCC(c1ccccc1)c1ccccc1 (racemic)
4.77
